Record form. Attribute: pKd. Fill in for each entry.
# System name: GDP-bound KRAS wild-type protein (Homo sapiens, UniProt P01116)
# Sequence (P01116 whole entry): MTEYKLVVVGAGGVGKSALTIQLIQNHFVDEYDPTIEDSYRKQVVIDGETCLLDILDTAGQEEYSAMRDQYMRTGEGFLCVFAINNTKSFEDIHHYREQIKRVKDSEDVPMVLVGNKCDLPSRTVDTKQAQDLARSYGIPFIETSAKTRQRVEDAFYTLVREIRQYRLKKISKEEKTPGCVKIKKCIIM
# Experiment description: Binding to KRAS by surface plasmon resonance (SPR), Single Cycle Kinetics
# Test parameters: SPR, Single Cycle Kinetics, GDP-bound KRAS wild-type protein; read-out: KRAS KD
Answers are plain numbers, as −log10 of the molar value.

Example cases with answers are listed next.
1) CCC[C@H]1C(=O)N[C@@H]([C@@H](C)CC)C(=O)N(C2CC2)CC(=O)N(C)[C@H]2C/C=C\CCN(C2=O)[C@@H](CC2CCC(F)(F)CC2)C(=O)N(C)CC(=O)N[C@@H](CCc2ccc(Cl)c(Cl)c2)C(=O)N2C[C@H](OC(C)C)C[C@H]2C(=O)NC2(CC(C)(C)C2)C(=O)N(C)[C@@H](C2CCCC2)C(=O)N(C)[C@H](C(=O)N(C)C)CC(=O)N1C	8.55
2) CCO[C@@H]1C[C@H]2C(=O)NC3(CC(C)(C)C3)C(=O)N(C)[C@@H](C3CCCC3)C(=O)N(C)[C@H](C(=O)N(C)C)CC(=O)N(C)[C@H]3CCCCCCc4ccc(cc4)C[C@@H](C(=O)N(C)CC(=O)N[C@@H](CCc4ccc(C(F)(F)F)c(OC)c4)C(=O)N2C1)N1CC/C=C\C[C@@H](C1=O)N(C)C(=O)CN(C1CC1)C(=O)[C@H]([C@@H](C)CC)NC3=O	9.77
3) CCCN(C)C(=O)[C@@H]1CC(=O)N(C)[C@@H](COCC)C(=O)N[C@@H]([C@@H](C)CC)C(=O)N(C)CC(=O)N(C)[C@H]2C/C=C\CCN(C2=O)[C@@H](Cc2ccc(C(F)(F)F)cc2)C(=O)N(C)CC(=O)N[C@@H](CCc2ccc(C(F)(F)F)c(OC)c2)C(=O)N2C[C@@H](C)C[C@H]2C(=O)NC2(CC(C)(C)C2)C(=O)N(C)[C@@H](C2CCCC2)C(=O)N1C	9.82
4) CCC[C@H]1C(=O)N[C@@H]([C@@H](C)CC)C(=O)N(C)CC(=O)N(C)[C@H]2C/C=C\CCN(C2=O)[C@@H](Cc2ccc(C)cc2)C(=O)N(C)CC(=O)N[C@@H](CCc2ccc(C(F)(F)F)c(OC)c2)C(=O)N2C[C@@H](C)C[C@H]2C(=O)N(C)C2(CCC2)C(=O)N(C)[C@@H](C2CCCC2)C(=O)N(C)[C@H](C(=O)N(C)C)CC(=O)N1C	10.80
5) CC[C@H](C)[C@@H]1NC(=O)[C@H](CC)N(C)C(=O)C[C@@H](C(=O)N(C)C)N(C)C(=O)[C@H](C2CCCC2)N(C)C(=O)C2(CCC2)NC(=O)[C@@H]2CSCCN2C(=O)[C@H](CCc2cc(F)c(C(F)(F)F)c(F)c2)NC(=O)CN(C)C(=O)[C@H](Cc2ccc(C(F)(F)F)cc2)N2CC/C=C\C[C@@H](C2=O)N(C)C(=O)CN(C)C1=O	9.96
6) CCC[C@H]1C(=O)N[C@@H]([C@@H](C)CC)C(=O)N(C)CC(=O)N(C)[C@H]2C/C=C\CCN(C2=O)[C@@H](Cc2ccc(C(F)(F)F)cc2)C(=O)N(C)CC(=O)N[C@@H](CCc2ccc(C(F)(F)F)c(OC)c2)C(=O)N2C[C@H](OCC)C[C@H]2C(=O)N(C)C2(CCC2)C(=O)N(C)[C@@H](C(CC)CC)C(=O)N(C)[C@H](C(=O)N(C)C)CC(=O)N1C	9.92
7) CCC[C@H]1C(=O)N[C@@H](C2CCCCC2)C(=O)N(C)CC(=O)N(C)[C@H]2C/C=C\CCN(C2=O)[C@@H](Cc2ccc(C(F)(F)F)cc2)C(=O)N(C)CC(=O)N[C@@H](CCc2ccc(C(F)(F)F)c(Cl)c2)C(=O)N2C[C@H](OCC)C[C@H]2C(=O)NC2(CC(C)(C)C2)C(=O)N(C)[C@@H](C2CCCC2)C(=O)N(C)[C@H](C(=O)N(C)C)CC(=O)N1C	9.44
8) CCO[C@@H]1C[C@H]2C(=O)NC3(CCC3)C(=O)N(C)[C@@H](C3CCCC3)C(=O)N(C)[C@H](C(=O)N(C)C)CC(=O)N(C)[C@@H](Cc3cccc(Cl)c3)C(=O)N[C@@H]([C@@H](C)CC)C(=O)N(C)CC(=O)N(C)[C@H]3C/C=C\CCN(C3=O)[C@@H](Cc3ccc(C(F)(F)F)cc3)C(=O)N(C)CC(=O)N[C@@H](CCc3cc(F)c(C(F)(F)F)c(F)c3)C(=O)N2C1	9.96
9) CC[C@H](C)[C@@H]1NC(=O)[C@H](CC(C)C)N(C)C(=O)C[C@@H](C(=O)N2CCOCC2)N(C)C(=O)[C@H](C2CCCC2)N(C)C(=O)C2(CCC2)NC(=O)[C@@H]2[C@@H](OC)CCN2C(=O)[C@H](CCc2cc(F)c(C(F)(F)F)c(F)c2)NC(=O)CN(C)C(=O)[C@H](Cc2ccc(C(F)(F)F)cc2)N2CCCCC[C@@H](C2=O)N(C)C(=O)CN(C)C1=O	8.54
10) CCO[C@@H]1C[C@H]2C(=O)NC3(CC(C)(C)C3)C(=O)N(C)[C@@H](C3CCCC3)C(=O)N(C)[C@H](C(=O)N(C)CC)CC(=O)N(C)[C@@H](C3CCC3)C(=O)N[C@@H]([C@@H](C)CC)C(=O)N(C)CC(=O)N(C)[C@H]3C/C=C\CCN(C3=O)[C@@H](Cc3ccc(C(F)(F)F)cc3)C(=O)N(C)CC(=O)N[C@@H](CCc3cc(F)c(C(F)(F)F)c(F)c3)C(=O)N2C1	9.80

Okay, now this compound:
So what does the record say about pKd for CCCN(C)C(=O)[C@@H]1CC(=O)N(C)[C@@H](CCOC)C(=O)N[C@@H]([C@@H](C)CC)C(=O)N(C)CC(=O)N(C)[C@H]2C/C=C\CCN(C2=O)[C@@H](Cc2ccc(C(F)(F)F)cc2)C(=O)N(C)CC(=O)N[C@@H](CCc2ccc(C(F)(F)F)c(OC)c2)C(=O)N2C[C@@H](C)C[C@H]2C(=O)NC2(CC(C)(C)C2)C(=O)N(C)[C@@H](C2CCCC2)C(=O)N1C ?
9.96
